Tested on: L1210 leukemia ip in BDF1 mice, survival T/C
testDetails: NCI In Vivo Anticancer Drug Screen. Data for tumor model L1210 Leukemia (intraperitoneal) in B6D2F1 (BDF1) mice
conditionDetails: endpoint: mean survival time; dose: 75.0 mg/kg/injection; schedule: Q01DX001 (ip); vehicle: saline; higher = longer survival
Procedure: The antitumor activity of compounds was measured in mice bearing transplantable tumors. Survival or tumor size were measured and the results are expressed as the measurement made in the treated group (T) divided by the measurement made in the vehicle treated control group (C). The tumor model used in this assay is L1210 Leukemia (intraperitoneal) in B6D2F1 (BDF1) mice
Inconclusive results and toxic doses are left out.
Would you kindly list T/C for each of these compounds?

compound	T/C
CCCCCCC(C)CC(CCCCCC)NCCOC(=O)c1ccc([N+](=O)[O-])cc1 (stereo unspecified)	105 % of control
CC1(C)OC2C(CO)OC(n3cnc4c(=O)[nH]cnc43)C2O1 (stereo unspecified)	102 % of control
CC1CC(=O)N(Cl)C(=O)N1Cl (stereo unspecified)	102 % of control
C/C=C1\CCCCN(Cc2ccccc2)CCC1	104 % of control
O=C(O)c1c(Cl)c(Cl)c(Cl)c(Cl)c1C(=O)c1ccccc1	109 % of control

With those in mind, consider the next compound.
Param item = N#CC(N)c1ccccc1 (stereo unspecified) ; retrieve measured T/C.
103 % of control

Cited source for all entries: PubChem BioAssay AID248
